- System: NCI-H1915
- assay_overview: relative viability (nuclei count vs DMSO), 5 days (fraction); higher = more cells survive
- condition_parameters: first compound 0.08 µM

compound | relative viability
Cc1cnc(-c2cnc(NCCNc3ccc(C#N)cn3)nc2-c2ccc(Cl)cc2Cl)[nH]1 + COc1cccc2cc(-c3nc([C@H]4CC[C@H](C(=O)O)CC4)n4ncnc(N)c34)[nH]c12 [OSI-027] (partner 0.5 µM) | 0.715
Cc1cnc(-c2cnc(NCCNc3ccc(C#N)cn3)nc2-c2ccc(Cl)cc2Cl)[nH]1 + C[C@@H](Oc1cc(-c2cnn(C3CCNCC3)c2)cnc1N)c1c(Cl)ccc(F)c1Cl [Crizotinib] (partner 1 µM) | 0.85
Cc1cnc(-c2cnc(NCCNc3ccc(C#N)cn3)nc2-c2ccc(Cl)cc2Cl)[nH]1 + O=C(CCCCCCC(=O)Nc1ccccc1)NO [Vorinostat] (partner 1 µM) | 0.532
O=c1[nH]c2ccccc2n1C1CCN(CCCC(c2ccc(F)cc2)c2ccc(F)cc2)CC1 [Pimozide] + CC1(C)CCC(c2ccc(Cl)cc2)=C(CN2CCN(c3ccc(C(=O)NS(=O)(=O)c4ccc(N[C@H](CCN5CCOCC5)CSc5ccccc5)c(S(=O)(=O)C(F)(F)F)c4)cc3)CC2)C1 [Navitoclax] (partner 0.5 µM) | 0.784
Cc1cnc(-c2cnc(NCCNc3ccc(C#N)cn3)nc2-c2ccc(Cl)cc2Cl)[nH]1 + CS(=O)(=O)N1CCN(Cc2cc3nc(-c4cccc5[nH]ncc45)nc(N4CCOCC4)c3s2)CC1 [Pictilisib] (partner 1 µM) | 0.958
O=c1[nH]c2ccccc2n1C1CCN(CCCC(c2ccc(F)cc2)c2ccc(F)cc2)CC1 [Pimozide] + NC(=O)Nc1cc(-c2cccc(F)c2)sc1C(=O)N[C@H]1CCCNC1 [AZD7762] (partner 0.2 µM) | 0.661
O=c1[nH]c2ccccc2n1C1CCN(CCCC(c2ccc(F)cc2)c2ccc(F)cc2)CC1 [Pimozide] + CS(=O)(=O)CCNCc1ccc(-c2ccc3ncnc(Nc4ccc(OCc5cccc(F)c5)c(Cl)c4)c3c2)o1 [Lapatinib] (partner 2 µM) | 1.03
Cc1cnc(-c2cnc(NCCNc3ccc(C#N)cn3)nc2-c2ccc(Cl)cc2Cl)[nH]1 + CCNC(=O)c1noc(-c2cc(C(C)C)c(O)cc2O)c1-c1ccc(CN2CCOCC2)cc1 [Luminespib] (partner 0.01 µM) | 0.808
Cc1cnc(-c2cnc(NCCNc3ccc(C#N)cn3)nc2-c2ccc(Cl)cc2Cl)[nH]1 + CS(=O)(=O)CCNCc1ccc(-c2ccc3ncnc(Nc4ccc(OCc5cccc(F)c5)c(Cl)c4)c3c2)o1 [Lapatinib] (partner 2 µM) | 0.985

====

- System: COR-L23
- assay_overview: relative viability (nuclei count vs DMSO), 5 days (fraction); higher = more cells survive
- condition_parameters: first compound 0.005 µM

compound | relative viability
COc1cc2nccc(Oc3ccc(NC(=O)Nc4cc(C)on4)c(Cl)c3)c2cc1OC [Tivozanib] + CS(=O)(=O)N1CCN(Cc2cc3nc(-c4cccc5[nH]ncc45)nc(N4CCOCC4)c3s2)CC1 [Pictilisib] (partner 1 µM) | 0.733
COc1cc2nccc(Oc3ccc(NC(=O)Nc4cc(C)on4)c(Cl)c3)c2cc1OC [Tivozanib] + Cc1nc(NC(=O)N2CCC[C@H]2C(N)=O)sc1-c1ccnc(C(C)(C)C(F)(F)F)c1 [Alpelisib] (partner 2 µM) | 0.687
Nc1ccn([C@@H]2O[C@H](CO)[C@@H](O)[C@@H]2O)c(=O)n1 [Cytarabine] + C[C@@H](Oc1cc(-c2cnn(C3CCNCC3)c2)cnc1N)c1c(Cl)ccc(F)c1Cl [Crizotinib] (partner 1 µM) | 0.578
COc1cc2nccc(Oc3ccc(NC(=O)Nc4cc(C)on4)c(Cl)c3)c2cc1OC [Tivozanib] + Nc1nc2[nH]cc(CCc3ccc(C(=O)N[C@@H](CCC(=O)O)C(=O)O)cc3)c2c(=O)[nH]1 [Pemetrexed] (partner 0.2 µM) | 0.193
COc1cc2nccc(Oc3ccc(NC(=O)Nc4cc(C)on4)c(Cl)c3)c2cc1OC [Tivozanib] + Cc1nc(Nc2ncc(C(=O)Nc3c(C)cccc3Cl)s2)cc(N2CCN(CCO)CC2)n1 [Dasatinib] (partner 0.075 µM) | 0.484
